- SYSTEM TESTED: hMC3-R (human, UniProt P41968)
- Sequence (P41968 whole entry): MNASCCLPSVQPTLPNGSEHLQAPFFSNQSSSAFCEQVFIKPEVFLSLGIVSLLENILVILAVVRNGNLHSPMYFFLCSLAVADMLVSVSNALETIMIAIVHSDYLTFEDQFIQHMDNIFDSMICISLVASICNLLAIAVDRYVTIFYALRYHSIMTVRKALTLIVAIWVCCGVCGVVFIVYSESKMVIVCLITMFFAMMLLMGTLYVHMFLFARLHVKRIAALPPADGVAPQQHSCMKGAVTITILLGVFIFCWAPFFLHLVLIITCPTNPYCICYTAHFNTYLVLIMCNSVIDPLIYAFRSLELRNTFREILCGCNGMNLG
- ASSAY REMARKS: competition
Bridges are numbered along the chain shown (N, C = ends). [ ]: non-standard residue; d: D form. Nle = CCCC[C@H](N)C(=O)O
QUANTITY KIND: pKi
The scale used: pKi is minus the common logarithm of the concentration in molar units.

**Query** Give its pKi value. Item: Ac-[Nle]C[dA]H[dF]RWGC-NH2 (disulfide 2-9; SMILES CCCC[C@H](NC(C)=O)C(=O)N[C@H]1CSSC[C@@H](C(N)=O)NC(=O)CNC(=O)[C@H](Cc2c[nH]c3ccccc23)NC(=O)[C@H](CCCNC(=N)N)NC(=O)[C@@H](Cc2ccccc2)NC(=O)[C@H](Cc2c[nH]cn2)NC(=O)[C@@H](C)NC1=O) [Ac-Nle-c(Cys-D-Ala-His-D-Phe-Arg-Trp-Gly-Cys)-NH2]
**Result** 6.83

**Query** # pKi lookup, item Ac-[Nle]D[dA]H[dF]RWK-NH2 (lactam 2-8; SMILES CCCC[C@H](NC(C)=O)C(=O)N[C@H]1CC(=O)NCCCC[C@@H](C(N)=O)NC(=O)[C@H](Cc2c[nH]c3ccccc23)NC(=O)[C@H](CCCNC(=N)N)NC(=O)[C@@H](Cc2ccccc2)NC(=O)[C@H](Cc2c[nH]cn2)NC(=O)[C@@H](C)NC1=O) [Ac-Nle-c(Asp-D-Ala-His-D-Phe-Arg-Trp-Lys)-NH2]
**Result** 7.00

Where do the numbers come from? From patent US20170240595.
